Hey, just so you know, these numbers are from patent US10081665B2.

- Tgt: HLA-A*02:01 (Homo sapiens, UniProt P04439, D140Y/D185E/D98H/E176V/E277Q/G131W/G231S/I119V/I121R/I166T/I218V/L300P/L318F/N151K/N90K/P208A/P217A/Q86G/Q94H/R138H/R169H/T345S)
- Assay Remarks: MHC binding assay (UV-ligand exchange, beta2m ELISA)
- Condition Details: binding to HLA-A*02:01, β2m ELISA
Assay Readout: Peptide exchange (MHC class I binding score, peptide exchange yield)

>  <Substance>
286 (FLTEMVHFI; listed as Homo sapiens) [compound 286]

>  <Obs Value>
+++ (≥50 = +++)

$$$$
>  <Substance>
26 (VLDGKVAVV; listed as Homo sapiens) [compound 26]

>  <Obs Value>
+++ (≥50 = +++)

$$$$

* * *

- Tgt: HLA-A*02:01 (Homo sapiens, UniProt P04439, D140Y/D185E/D98H/E176V/E277Q/G131W/G231S/I119V/I121R/I166T/I218V/L300P/L318F/N151K/N90K/P208A/P217A/Q86G/Q94H/R138H/R169H/T345S)
- Assay Remarks: MHC binding assay (UV-ligand exchange, beta2m ELISA)
- Condition Details: binding to HLA-A*02:01, β2m ELISA
Assay Readout: Peptide exchange (MHC class I binding score, peptide exchange yield)

Solved entries (count: 7):
>  <Substance>
41 (IVTEIISEI; listed as Homo sapiens) [compound 41]

>  <Obs Value>
+++ (≥50 = +++)

$$$$
>  <Substance>
169 (ALADLSVAV; listed as Homo sapiens) [compound 169]

>  <Obs Value>
+++ (≥50 = +++)

$$$$
>  <Substance>
206 (GLDAFRIFL; listed as Homo sapiens) [compound 206]

>  <Obs Value>
++++ (≥75% = ++++)

$$$$
>  <Substance>
251 (LLWGNLPEI; listed as Homo sapiens) [compound 251]

>  <Obs Value>
+++ (≥50 = +++)

$$$$
>  <Substance>
177 (ALINVLNAL; listed as Homo sapiens) [compound 177]

>  <Obs Value>
+++ (≥50 = +++)

$$$$
>  <Substance>
30 (IITEVITRL; listed as Homo sapiens) [compound 30]

>  <Obs Value>
+++ (≥50 = +++)

$$$$
>  <Substance>
6 (FLNAIETAL; listed as Homo sapiens) [compound 6]

>  <Obs Value>
++++ (≥75% = ++++)

$$$$

Here is another substance to look at.
Quick one: Peptide exchange (MHC class I binding score, peptide exchange yield) for 59 (ALADGIKSFLL; listed as Homo sapiens) [compound 59] ? +++ (≥50 = +++)

* * *

- Tgt: HLA-A*02:01 (Homo sapiens, UniProt P04439, D140Y/D185E/D98H/E176V/E277Q/G131W/G231S/I119V/I121R/I166T/I218V/L300P/L318F/N151K/N90K/P208A/P217A/Q86G/Q94H/R138H/R169H/T345S)
- Assay Remarks: MHC binding assay (UV-ligand exchange, beta2m ELISA)
- Condition Details: binding to HLA-A*02:01, β2m ELISA
Assay Readout: Peptide exchange (MHC class I binding score, peptide exchange yield)

Solved entries (count: 4):
>  <Substance>
18 (KTASINQNV; listed as Homo sapiens) [compound 18]

>  <Obs Value>
++ (≥20% = ++)

$$$$
>  <Substance>
39 (YLEDGFAYV; listed as Homo sapiens) [compound 39]

>  <Obs Value>
+++ (≥50 = +++)

$$$$
>  <Substance>
116 (ALLSSVAEA; listed as Homo sapiens) [compound 116]

>  <Obs Value>
++ (≥20% = ++)

$$$$
>  <Substance>
80 (VLTGQVHEL; listed as Homo sapiens) [compound 80]

>  <Obs Value>
+++ (≥50 = +++)

$$$$

Quick one: Peptide exchange (MHC class I binding score, peptide exchange yield) for 98 (FVQEKIPEL; listed as Homo sapiens) [compound 98] ? +++ (≥50 = +++)

Quick one: Peptide exchange (MHC class I binding score, peptide exchange yield) for 282 (SLYALHVKA; listed as Homo sapiens) [compound 282] ? ++ (≥20% = ++)

Quick one: Peptide exchange (MHC class I binding score, peptide exchange yield) for 131 (SLYPHFTLL; listed as Homo sapiens) [compound 131] ? +++ (≥50 = +++)

Quick one: Peptide exchange (MHC class I binding score, peptide exchange yield) for 48 (KISDFGLATV; listed as Homo sapiens) [compound 48] ? +++ (≥50 = +++)

Quick one: Peptide exchange (MHC class I binding score, peptide exchange yield) for 10 (QLIEKNWLL; listed as Homo sapiens) [compound 10] ? +++ (≥50 = +++)

* * *

- Tgt: HLA-A*02:01 (Homo sapiens, UniProt P04439, D140Y/D185E/D98H/E176V/E277Q/G131W/G231S/I119V/I121R/I166T/I218V/L300P/L318F/N151K/N90K/P208A/P217A/Q86G/Q94H/R138H/R169H/T345S)
- Assay Remarks: MHC binding assay (UV-ligand exchange, beta2m ELISA)
- Condition Details: binding to HLA-A*02:01, β2m ELISA
Assay Readout: Peptide exchange (MHC class I binding score, peptide exchange yield)

>  <Substance>
218 (SLTGANITV; listed as Homo sapiens) [compound 218]

>  <Obs Value>
+++ (≥50 = +++)

$$$$
>  <Substance>
144 (FLISQTPLL; listed as Homo sapiens) [compound 144]

>  <Obs Value>
+++ (≥50 = +++)

$$$$
>  <Substance>
265 (FLLDKPQDLSI; listed as Homo sapiens) [compound 265]

>  <Obs Value>
+++ (≥50 = +++)

$$$$
>  <Substance>
163 (GLEERLYTA; listed as Homo sapiens) [compound 163]

>  <Obs Value>
++ (≥20% = ++)

$$$$

Quick one: Peptide exchange (MHC class I binding score, peptide exchange yield) for 49 (KLIGNIHGNEV; listed as Homo sapiens) [compound 49] ? ++ (≥20% = ++)

* * *

- Tgt: HLA-A*02:01 (Homo sapiens, UniProt P04439, D140Y/D185E/D98H/E176V/E277Q/G131W/G231S/I119V/I121R/I166T/I218V/L300P/L318F/N151K/N90K/P208A/P217A/Q86G/Q94H/R138H/R169H/T345S)
- Assay Remarks: MHC binding assay (UV-ligand exchange, beta2m ELISA)
- Condition Details: binding to HLA-A*02:01, β2m ELISA
Assay Readout: Peptide exchange (MHC class I binding score, peptide exchange yield)

>  <Substance>
173 (RLIDIYKNV; listed as Homo sapiens) [compound 173]

>  <Obs Value>
+++ (≥50 = +++)

$$$$
>  <Substance>
106 (VLLGSVVIFA; listed as Homo sapiens) [compound 106]

>  <Obs Value>
++ (≥20% = ++)

$$$$
>  <Substance>
159 (QLGPVPVTI; listed as Homo sapiens) [compound 159]

>  <Obs Value>
+++ (≥50 = +++)

$$$$
>  <Substance>
108 (FIANLPPELKA; listed as Homo sapiens) [compound 108]

>  <Obs Value>
+++ (≥50 = +++)

$$$$

Here is another substance to look at.
Quick one: Peptide exchange (MHC class I binding score, peptide exchange yield) for 238 (HLQEKLQSL; listed as Homo sapiens) [compound 238] ? ++ (≥20% = ++)

* * *

- Tgt: HLA-A*02:01 (Homo sapiens, UniProt P04439, D140Y/D185E/D98H/E176V/E277Q/G131W/G231S/I119V/I121R/I166T/I218V/L300P/L318F/N151K/N90K/P208A/P217A/Q86G/Q94H/R138H/R169H/T345S)
- Assay Remarks: MHC binding assay (UV-ligand exchange, beta2m ELISA)
- Condition Details: binding to HLA-A*02:01, β2m ELISA
Assay Readout: Peptide exchange (MHC class I binding score, peptide exchange yield)

>  <Substance>
132 (ALLNNVIEV; listed as Homo sapiens) [compound 132]

>  <Obs Value>
+++ (≥50 = +++)

$$$$
>  <Substance>
147 (GLLSALENV; listed as Homo sapiens) [compound 147]

>  <Obs Value>
+++ (≥50 = +++)

$$$$
>  <Substance>
160 (TLQEWLTEV; listed as Homo sapiens) [compound 160]

>  <Obs Value>
+++ (≥50 = +++)

$$$$
>  <Substance>
269 (GLLDCPIFL; listed as Homo sapiens) [compound 269]

>  <Obs Value>
++++ (≥75% = ++++)

$$$$
>  <Substance>
261 (GLAALAVHL; listed as Homo sapiens) [compound 261]

>  <Obs Value>
+++ (≥50 = +++)

$$$$
>  <Substance>
13 (RLHDENILL; listed as Homo sapiens) [compound 13]

>  <Obs Value>
+++ (≥50 = +++)

$$$$
>  <Substance>
271 (VLIEYNFSI; listed as Homo sapiens) [compound 271]

>  <Obs Value>
+++ (≥50 = +++)

$$$$

Quick one: Peptide exchange (MHC class I binding score, peptide exchange yield) for 234 (VLLNEILEQV; listed as Homo sapiens) [compound 234] ? ++++ (≥75% = ++++)
